assay: Acute toxicity, intravenous injection; format: in vivo, Mäusen; settings: mouse, in vivo, iv; i.v. on day 0, 3 and 6; survivors counted on day 20; 2 mice per dose; read-out: akute Toxizität LD50
property.measured: LD50 at 480 h (mg/kg)
Value expressed in mg/kg; do not type the unit.

Fill in reported LD50 at 480 h for this entry: COc1cccc2c1C(=O)c1c(O)c3c(c(O)c1C2=O)C[C@@](O)(C(=O)CO)C[C@@H]3O[C@H]1C[C@H](N)[C@H](O)[C@H](C)O1 [Adriamycin, reference compound]
10
